# experiment-notes: Toxicity liver stage against HepG2, at 10uM
# Assay type: cell-based
# Design: test concentration 10 uM, cell line HepG2-A16-CD81EGFP
# measurement-setup: human, HepG2-A16-CD81EGFP cells; read-out: INHIBITION
// reported cytotoxicity at 10 µM per item
Report only the number, with the unit % understood.

Item "Cc1ccc(N2CCCN(C(=O)c3c(C)oc(C)c3C)CC2)nn1" : provide cytotoxicity at 10 µM 5.46

Please report the measured cytotoxicity at 10 µM for "Cc1ccnc(OC[C@@]23CCO[C@@H]2CCN(c2ncccn2)C3)n1" 4.86

Report cytotoxicity at 10 µM, nothing else, for this compound: "Cc1nccn1-c1ccc(=O)n(CCNC(=O)c2ccccn2)n1" -11.3

Entry Cc1nc(-c2cccc(Cl)c2)n(CC(=O)NCC2CCCO2)c(=O)c1C (stereo unspecified) needs its cytotoxicity at 10 µM filled in; supply it. -7.04

All figures here come from ChEMBL document CHEMBL4513216.
